# experimental-target: ~100 representative kinases (Homo sapiens, UniProt Q13554)
# Construct: Recombinant protein kinase domains with a concentration of 2 μM
# Sequence (Q13554 whole entry, the tested form may be a part): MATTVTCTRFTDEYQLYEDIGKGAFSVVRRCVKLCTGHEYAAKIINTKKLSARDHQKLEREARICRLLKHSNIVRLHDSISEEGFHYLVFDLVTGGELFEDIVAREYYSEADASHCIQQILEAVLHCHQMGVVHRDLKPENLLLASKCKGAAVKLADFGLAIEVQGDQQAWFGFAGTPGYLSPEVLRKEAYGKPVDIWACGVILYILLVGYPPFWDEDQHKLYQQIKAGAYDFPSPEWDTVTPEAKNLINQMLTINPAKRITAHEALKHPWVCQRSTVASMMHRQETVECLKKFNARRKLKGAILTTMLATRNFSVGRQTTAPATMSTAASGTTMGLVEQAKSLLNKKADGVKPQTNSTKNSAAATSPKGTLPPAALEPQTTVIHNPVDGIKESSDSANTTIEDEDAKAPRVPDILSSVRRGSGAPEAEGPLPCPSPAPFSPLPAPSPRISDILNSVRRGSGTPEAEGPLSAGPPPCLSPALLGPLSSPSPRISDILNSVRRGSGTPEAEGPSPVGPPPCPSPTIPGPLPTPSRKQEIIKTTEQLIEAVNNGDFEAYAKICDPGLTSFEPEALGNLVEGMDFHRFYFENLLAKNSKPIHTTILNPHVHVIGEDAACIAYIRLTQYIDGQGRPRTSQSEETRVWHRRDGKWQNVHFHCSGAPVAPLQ
# assay-overview: DSF 100 kinase selectivity screen;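 note: compound tested at 20 µM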
# Assay type: binding
# study-conditions: Protein CAMK2B; average of three replicates
For each record, write down the corresponding dTm.
Give bare numbers, in K.

Example cases with answers are listed next.
[
  {
    "smiles-notation": "O=C(Nc1ccccc1)C1(C(=O)Nc2cccc(-c3c[nH]c4ncnc(N5CCOCC5)c34)c2)CC1",
    "dTm, K": 0.82
  },
  {
    "smiles-notation": "O=C(Nc1cc(F)cc(Br)c1)C1(C(=O)Nc2cccc(-c3c[nH]c4ncnc(N5CCOCC5)c34)c2)CC1",
    "dTm, K": 1.75
  },
  {
    "smiles-notation": "O=C(Nc1cccc(-c2c[nH]c3ncnc(N4CCOCC4)c23)c1)C1(C(=O)Nc2cccc3c2CCC3)CC1",
    "dTm, K": 1.38
  }
]

Now for the molecule whose dTm we want.
Query block: Please give the measured dTm for this molecule: O=C(Nc1cccc(-c2c[nH]c3ncnc(N4CCOCC4)c23)c1)C1(C(=O)Nc2ccc(F)cc2F)CC1
Result block: 0.18

====

# experimental-target: ~100 representative kinases (Homo sapiens, UniProt Q9Y2H1)
# Construct: Recombinant protein kinase domains with a concentration of 2 μM
# Sequence (Q9Y2H1 whole entry, the tested form may be a part): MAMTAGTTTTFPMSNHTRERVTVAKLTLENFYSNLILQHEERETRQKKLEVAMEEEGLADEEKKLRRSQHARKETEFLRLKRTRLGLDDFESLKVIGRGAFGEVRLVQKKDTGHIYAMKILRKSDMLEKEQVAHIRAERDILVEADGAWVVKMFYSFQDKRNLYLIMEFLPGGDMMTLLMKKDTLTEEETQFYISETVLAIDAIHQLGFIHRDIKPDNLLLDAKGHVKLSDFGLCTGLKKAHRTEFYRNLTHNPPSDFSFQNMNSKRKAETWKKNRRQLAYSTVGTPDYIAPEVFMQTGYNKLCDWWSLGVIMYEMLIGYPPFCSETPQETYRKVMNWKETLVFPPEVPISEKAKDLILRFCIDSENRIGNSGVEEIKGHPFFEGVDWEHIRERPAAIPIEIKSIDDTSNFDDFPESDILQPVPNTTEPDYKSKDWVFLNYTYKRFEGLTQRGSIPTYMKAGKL
# assay-overview: DSF 100 kinase selectivity screen;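 note: compound tested at 20 µM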
# Assay type: binding
# study-conditions: Protein STK38L; DSF; average of three replicates
recorded-endpoint: dTm (K)
One number for each entry, in K.

Example cases with answers are listed next.
[
  {
    "smiles-notation": "CC(=O)N1CCN(c2nc(Cl)nc3[nH]cc(-c4cccc(NC(=O)Nc5cc(C(C)(C)C)nn5-c5ccc(C)cc5)c4)c23)CC1",
    "dTm [K]": -0.73
  },
  {
    "smiles-notation": "CCSc1nc(NC)c2c(-c3cccc(NC(=O)Nc4cc(C(C)(C)C)nn4-c4ccc(C)cc4)c3)c[nH]c2n1",
    "dTm [K]": -0.75
  },
  {
    "smiles-notation": "C[C@@H]1CN(c2cc(-c3n[nH]c4ccc(OC5(C)CC5)cc34)ncn2)C[C@H](C)O1",
    "dTm [K]": -0.08
  }
]

Query block: Provide the documented dTm with ~100 representative kinases (Homo sapiens, UniProt Q9Y2H1) as the system for COc1cc(S(C)(=O)=O)ccc1Nc1nc(N(C)C)c2c(Cl)c[nH]c2n1
Result block: -1.21

====

For each record, write down the corresponding dTm.
# experimental-target: ~100 representative kinases (Homo sapiens)
# Construct: Recombinant protein kinase domains with a concentration of 2 μM
# assay-overview: DSF 100 kinase selectivity screen;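 note: compound tested at 20 µM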
# Type: binding
# study-conditions: Protein CLK3; average of three replicates
Give bare numbers, in K.

Example cases with answers are listed next.
[
  {
    "smiles-notation": "COc1cc(C(=O)N2CCOCC2)c(F)cc1Nc1nc(N(C)C)c2c(Cl)c[nH]c2n1",
    "experimental-target": "~100 representative kinases (Homo sapiens)",
    "dTm [K]": 2.75
  },
  {
    "smiles-notation": "COc1cc(NC(=O)C2(C(=O)Nc3cccc(-c4c[nH]c5ncnc(N6CCOCC6)c45)c3)CC2)ccc1F",
    "experimental-target": "~100 representative kinases (Homo sapiens)",
    "dTm [K]": 3.11
  },
  {
    "smiles-notation": "O=C(Nc1ccccc1)C1(C(=O)Nc2cccc(-c3c[nH]c4ncnc(N5CCOCC5)c34)c2)CC1",
    "experimental-target": "~100 representative kinases (Homo sapiens)",
    "dTm [K]": 2.26
  }
]

Please give dTm, item by item, for the list that follows.
1. Cc1ccc(-n2nc(C(C)(C)C)cc2NC(=O)Nc2cccc(-c3c[nH]c4nc(Cl)nc(N5CCOCC5)c34)c2)cc1
2. O=C(Nc1cc(F)cc(Br)c1)C1(C(=O)Nc2cccc(-c3c[nH]c4ncnc(N5CCOCC5)c34)c2)CC1
3. C[C@@H]1CN(c2cc(-c3n[nH]c4ccc(OC5(C)CC5)cc34)ncn2)C[C@H](C)O1

Result block:
1. 3.71
2. 2.41
3. 3.51

====

# experimental-target: ~100 representative kinases (Homo sapiens, UniProt Q00532)
# Construct: Recombinant protein kinase domains with a concentration of 2 μM
# Sequence (Q00532 whole entry, the tested form may be a part): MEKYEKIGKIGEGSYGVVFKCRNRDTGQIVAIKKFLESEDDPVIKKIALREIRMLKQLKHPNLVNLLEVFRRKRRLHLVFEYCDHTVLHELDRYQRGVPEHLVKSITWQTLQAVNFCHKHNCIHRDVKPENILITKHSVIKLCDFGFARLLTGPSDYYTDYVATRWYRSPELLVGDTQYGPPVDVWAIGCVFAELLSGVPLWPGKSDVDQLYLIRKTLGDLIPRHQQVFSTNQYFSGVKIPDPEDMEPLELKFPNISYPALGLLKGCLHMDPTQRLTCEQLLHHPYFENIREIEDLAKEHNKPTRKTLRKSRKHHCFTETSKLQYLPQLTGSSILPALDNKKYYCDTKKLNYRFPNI
# assay-overview: DSF 100 kinase selectivity screen;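 note: compound tested at 20 µM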
# Type: binding
# study-conditions: Protein CDKL1; average of three replicates
recorded-endpoint: log10 of dTm (log10 of the value in K)
Annotation: log10 of dTm, K basis.

[
  {
    "molecule": "O=C(Nc1cccc(-c2c[nH]c3ncnc(N4CCOCC4)c23)c1)C1(C(=O)Nc2ccc(F)c(Br)c2F)CC1",
    "experimental-target": "~100 representative kinases (Homo sapiens, UniProt Q00532)",
    "log10 of dTm": 0.27
  }
]

Please give log10 of dTm, item by item, for the list that follows.
1. CNC(=O)c1cc(Oc2ccc(NC(=O)Nc3cc(C(C)(C)C)nn3-c3ccc4ncccc4c3)c(F)c2)ccn1 [Rebastinib, reference compound]
2. CCSc1nc(NC)c2c(-c3cccc(NC(=O)Nc4cc(C(C)(C)C)nn4-c4ccc(C)cc4)c3)c[nH]c2n1
3. O=C(Nc1cccc(-c2c[nH]c3ncnc(N4CCOCC4)c23)c1)C1(C(=O)Nc2cccc3c2CCC3)CC1
4. COc1cc(C(=O)N2CCOCC2)c(F)cc1Nc1nc(N(C)C)c2c(Cl)c[nH]c2n1

Result block:
[0.73, 0.98, 0.53, -0.43]

Query block: Please give the measured log10 of dTm for this molecule: O=C(Nc1ccc(F)cc1)C1(C(=O)Nc2cccc(-c3c[nH]c4ncnc(N5CCOCC5)c34)c2)CC1
Result block: 0.41

====

# experimental-target: ~100 representative kinases (Homo sapiens)
# Construct: Recombinant protein kinase domains with a concentration of 2 μM
# assay-overview: DSF 100 kinase selectivity screen;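 note: compound tested at 20 µM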
# Type: binding
# study-conditions: protein FGFR1; average of three replicates
recorded-endpoint: dTm (K)
Answers are plain numbers, in K.

Example cases with answers are listed next.
[
  {
    "smiles-notation": "O=C(Nc1cccc(-c2c[nH]c3ncnc(N4CCOCC4)c23)c1)C1(C(=O)Nc2cccc3c2CCC3)CC1",
    "experimental-target": "~100 representative kinases (Homo sapiens)",
    "recorded-endpoint": "dTm",
    "observed": 0.52
  },
  {
    "smiles-notation": "O=C(Nc1cc(F)cc(Br)c1)C1(C(=O)Nc2cccc(-c3c[nH]c4ncnc(N5CCOCC5)c34)c2)CC1",
    "experimental-target": "~100 representative kinases (Homo sapiens)",
    "recorded-endpoint": "dTm",
    "observed": 0.76
  },
  {
    "smiles-notation": "O=C(Nc1cccc(-c2c[nH]c3ncnc(N4CCOCC4)c23)c1)c1cccn(-c2ccc(F)cc2)c1=O",
    "experimental-target": "~100 representative kinases (Homo sapiens)",
    "recorded-endpoint": "dTm",
    "observed": 3.37
  }
]

Now for the compound whose dTm we want.
Query block: Please give the measured dTm for this compound: O=C(Nc1cccc(-c2c[nH]c3ncnc(N4CCOCC4)c23)c1)C1(C(=O)Nc2ccc(F)c(Br)c2F)CC1
Result block: 0.99

====

# experimental-target: ~100 representative kinases (Homo sapiens)
# Construct: Recombinant protein kinase domains with a concentration of 2 μM
# assay-overview: DSF 100 kinase selectivity screen;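 note: compound tested at 20 µM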
# Type: binding
# study-conditions: protein PAK1; average of three replicates
For each record, write down the corresponding dTm.
Answers are plain numbers, in K.

[
  {
    "smiles-notation": "CC(C)(C)c1cc(NC(=O)Nc2cccc(-c3c[nH]c4ncnc(N5CCOCC5)c34)c2)n(-c2ccc3ncccc3c2)n1",
    "recorded-endpoint": "dTm",
    "observed": 5.08
  },
  {
    "smiles-notation": "COc1ccc(NC(=O)C2(C(=O)Nc3cccc(-c4c[nH]c5ncnc(N6CCOCC6)c45)c3)CC2)cc1",
    "recorded-endpoint": "dTm",
    "observed": 0.47
  },
  {
    "smiles-notation": "Cc1ccc(-n2nc(C(C)(C)C)cc2NC(=O)Nc2cccc(-c3c[nH]c4ncnc(N5CCOCC5)c34)c2)cc1",
    "recorded-endpoint": "dTm",
    "observed": 3.58
  },
  {
    "smiles-notation": "O=C(Nc1cccc(-c2c[nH]c3ncnc(N4CCOCC4)c23)c1)C1(C(=O)Nc2cc(Br)c(F)cc2F)CC1",
    "recorded-endpoint": "dTm",
    "observed": 0.67
  },
  {
    "smiles-notation": "Cc1cc(NC(=O)C2(C(=O)Nc3cccc(-c4c[nH]c5ncnc(N6CCOCC6)c45)c3)CC2)ccc1F",
    "recorded-endpoint": "dTm",
    "observed": 6.40
  }
]

Please give dTm, item by item, for the list that follows.
1. CC(C)(C)c1cccc(NC(=O)C2(C(=O)Nc3cccc(-c4c[nH]c5ncnc(N6CCOCC6)c45)c3)CC2)c1
2. O=C(Nc1cccc(-c2c[nH]c3ncnc(N4CCOCC4)c23)c1)C1(C(=O)Nc2ccc(F)c(Br)c2F)CC1

Result block:
1: 3.87; 2: 2.69
